assay_protocol: Pharmacokinetic evaluation in dogs after a 10 mg/kg dose
condition_set: dog, plasma, po, Cmax (maximum concentration in blood), oral 10 mg/kg, HPLC (parent drug)
This section presents compounds with their documented Cmax values.
test_readout: Cmax (ng/mL)

[[record]]
compound_structure_string = "CC[C@H]1OC(=O)[C@H](C)[C@@H](O[C@H]2C[C@@](C)(OC)[C@@H](O)[C@H](C)O2)[C@H](C)[C@@H](O[C@@H]2O[C@H](C)C[C@H](N(C)C)[C@H]2O)[C@](C)(O)C[C@@H](C)[C@@H]2O[C@@]1(C)[C@@H](O)[C@H]2C"
test_readout = "Cmax"
unit_of_measure = "ng/mL"
val = 3900

[[record]]
compound_structure_string = "CC[C@H]1OC(=O)[C@H](C)[C@@H](O[C@H]2C[C@@](C)(OC)[C@H](N)[C@H](C)O2)[C@H](C)[C@@H](O[C@@H]2O[C@H](C)C[C@H](N(C)C)[C@H]2O)[C@](C)(O)C[C@@H](C)[C@@H]2O[C@@]1(C)[C@@H](O)[C@H]2C"
test_readout = "Cmax"
unit_of_measure = "ng/mL"
val = 1600

[[record]]
compound_structure_string = "CC[C@H]1OC(=O)[C@H](C)[C@@H](O[C@H]2C[C@@](C)(OC)[C@@H](N)[C@H](C)O2)[C@H](C)[C@@H](O[C@@H]2O[C@H](C)C[C@H](N(C)C)[C@H]2O)[C@](C)(O)C[C@@H](C)[C@@H]2O[C@@]1(C)[C@@H](N)[C@H]2C"
test_readout = "Cmax"
unit_of_measure = "ng/mL"
val = 3200

[[record]]
compound_structure_string = "CC[C@H]1OC(=O)[C@H](C)[C@@H](O[C@H]2C[C@@](C)(OC)[C@@H](O)[C@H](C)O2)[C@H](C)[C@@H](O[C@@H]2O[C@H](C)C[C@H](N(C)C)[C@H]2O)[C@](C)(O)C[C@@H](C)[C@@H]2O[C@@]1(C)C(=O)[C@H]2C"
test_readout = "Cmax"
unit_of_measure = "ng/mL"
val = 2500

[[record]]
compound_structure_string = "CC[C@H]1OC(=O)[C@H](C)[C@@H](O[C@H]2C[C@@](C)(OC)[C@@H](O)[C@H](C)O2)[C@H](C)[C@@H](O[C@@H]2O[C@H](C)C[C@H](N(C)C)[C@H]2O)[C@](C)(O)C[C@@H](C)[C@@H]2O[C@@]1(C)[C@@H](N)[C@H]2C"
test_readout = "Cmax"
unit_of_measure = "ng/mL"
val = 3200

